- TEST: Human HepG2 cell viability assay in 384 well format
- Type: toxicity, cell-based
- Parameters: dose 125 nL, time 70.5 hour; concentration not given beside the values
- RUN CONDITIONS: HepG2 cells, read-out: Inhibition
PROPERTY MEASURED: cytotoxicity at 70.5 h

{"COMPOUND": "CCC(CC)C(=O)N1CCCc2c(cnn2C)C1", "PROPERTY MEASURED": "cytotoxicity at 70.5 h", "RECORDED VALUE": "-1.89%"}
{"COMPOUND": "CN(C)CCCNC(=O)c1ccccc1NC(=O)c1ccccc1Cl", "PROPERTY MEASURED": "cytotoxicity at 70.5 h", "RECORDED VALUE": "22.1%"}
{"COMPOUND": "Cc1noc(C)c1CN1C[C@@H]2OCCN(Cc3cnn(C)c3)[C@@H]2C1", "PROPERTY MEASURED": "cytotoxicity at 70.5 h", "RECORDED VALUE": "-21.6%"}
{"COMPOUND": "COCC[C@]1(O)CCN(Cc2ccccn2)C[C@H]1C", "PROPERTY MEASURED": "cytotoxicity at 70.5 h", "RECORDED VALUE": "-0.199%"}
{"COMPOUND": "O=C1NCC2(CCCN(C(=O)CCn3cnc4ccccc43)CC2)O1 (configuration not stated)", "PROPERTY MEASURED": "cytotoxicity at 70.5 h", "RECORDED VALUE": "-1.01%"}
{"COMPOUND": "Cc1ccc(CN2CCC[C@]3(C(=O)O)CN(c4ncccn4)C[C@@H]3C2)o1", "PROPERTY MEASURED": "cytotoxicity at 70.5 h", "RECORDED VALUE": "0.612%"}
{"COMPOUND": "CS(=O)(=O)c1ccc(NC(=O)N2C[C@H](O)[C@@H](N3CCOCC3)C2)cc1", "PROPERTY MEASURED": "cytotoxicity at 70.5 h", "RECORDED VALUE": "20.5%"}
{"COMPOUND": "CCn1cnnc1CNC(=O)N1CCN(c2cccc(OC)c2)CC1", "PROPERTY MEASURED": "cytotoxicity at 70.5 h", "RECORDED VALUE": "-6.51%"}
{"COMPOUND": "Cc1nc(C)n(CC2CN(c3ncccc3C#N)CCO2)n1 (configuration not stated)", "PROPERTY MEASURED": "cytotoxicity at 70.5 h", "RECORDED VALUE": "-0.989%"}
{"COMPOUND": "CCS(=O)(=O)c1ccccc1C(=O)NCc1ccnc(N(C)C)c1", "PROPERTY MEASURED": "cytotoxicity at 70.5 h", "RECORDED VALUE": "-11.2%"}
{"COMPOUND": "c1cc2c(cc1OC[C@@H]1CCCN3CCCC[C@H]13)OCCO2", "PROPERTY MEASURED": "cytotoxicity at 70.5 h", "RECORDED VALUE": "3.85%"}
{"COMPOUND": "COCC1(Nc2nc(C)nc3c2cnn3C)CCCC1", "PROPERTY MEASURED": "cytotoxicity at 70.5 h", "RECORDED VALUE": "3.28%"}
